Field: sfGFP reporter fluorescence. Provide a value for each of the variants that follow.
B1: library; numbered along this chain (parent)
chain: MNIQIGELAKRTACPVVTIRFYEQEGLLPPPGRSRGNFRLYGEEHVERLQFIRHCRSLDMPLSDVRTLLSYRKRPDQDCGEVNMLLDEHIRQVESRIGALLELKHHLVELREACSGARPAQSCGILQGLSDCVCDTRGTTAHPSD

Variants of: B1
Assay: sfGFP reporter fluorescence (15 h) (µM FITC); higher = higher leak
Settings: library round: Round 1; ligand: none
// no unit string in output, number only

Prompt: Item K104V D135A has what recorded sfGFP reporter fluorescence?
Response: 0.0696

Prompt: Moving on to the next variant: V108I D131C
Response: 0.0613

Prompt: Next up: D64T L107C
Response: 2.07

Prompt: Do the same for Q121A D135A please
Response: 0.0661

Prompt: Further, for G128L C134E ?
Response: 0.0749

Prompt: Proceed to M60L P61N D64K K104V L107E G128I
Response: 0.0622

Prompt: Same again, this time with N83T I97S K104G
Response: 0.0612

Prompt: Quick one: L58F M60L P61N
Response: 0.091

Prompt: What do we get for D131L D135A ?
Response: 0.0688

Prompt: Next record, please: L85I P143M
Response: 0.058

Prompt: Can you handle G128I D131S next?
Response: 0.0878

Prompt: Consider next the variant P61N D64A in the same way.
Response: 0.0855

Prompt: Also L107C G128H , if possible.
Response: 0.132

Prompt: Now consider P61N D64K K104V L107C G128M and answer again.
Response: 0.854

Prompt: Then what about the variant N83T I90S ?
Response: 0.0629

Prompt: Further, for N83I H89C ?
Response: 0.0654

Prompt: Further, for N83T D131S ?
Response: 0.0602

Prompt: Now this one: N83T R96A
Response: 0.0645

Prompt: Consider next the variant D64K N83T in the same way.
Response: 0.0636

Prompt: Quick one: L28V C134T
Response: 0.0654

Prompt: Field entry: N83T I97H
Response: 0.0607

Taken from the supplement of paper PMC12783771.
